Sourced from patent US20250195521A1

Form field: IC50 (one value per entry).
Test system: NCI-H358 cells (K-Ras G12C)
Test: CellTiter-Glo cell viability, NCI-H358
Type: cell-based, human
Conditions: Homo sapiens, NCI-H358, 120 h, K-Ras G12C, 5-day treatment; read-out: H358 Cell Viability IC50
MEASURE NAME: IC50

SMILES ENTRY: CCn1c(-c2cnccc2COC)c2c3cc(ccc31)-c1cc(O)cc(c1)C[C@H](NC(=O)[C@H](C(C)C)N(C)C(=O)[C@H]1CCN(C[C@H](C)O)C1)C(=O)N1CCC[C@H](N1)C(=O)OCC(C)(C)C2
EXPERIMENTAL VALUE: > 10 µM
--
SMILES ENTRY: CCn1c(-c2cccnc2[C@H](C)OC)c2c3cc(ccc31)-c1cc(O)cc(c1)C[C@H](NC(=O)[C@H](C(C)C)N(C)C(=O)O[C@H]1CCN(C)C1)C(=O)N1CCC[C@H](N1)C(=O)OCC(C)(C)C2
EXPERIMENTAL VALUE: 0.1 to 1 µM
--
SMILES ENTRY: CCn1c(-c2cccnc2[C@H](C)OC)c2c3cc(ccc31)-c1csc(n1)C[C@H](NC(=O)[C@H](C(C)C)N(C)C(=O)N1CC(S(C)(=O)=O)C1)C(=O)N1CCC[C@H](N1)C(=O)OCC(C)(C)C2
EXPERIMENTAL VALUE: 0.01 to 0.1 µM
--
SMILES ENTRY: CCn1c(-c2cccnc2[C@H](C)OC)c2c3cc(ccc31)-c1csc(n1)C[C@H](NC(=O)[C@H](C(C)C)N(C)C(=O)N1CCO[C@H](c3ccccc3)C1)C(=O)N1CCC[C@H](N1)C(=O)OCC(C)(C)C2
EXPERIMENTAL VALUE: 0.01 to 0.1 µM
--
SMILES ENTRY: CCn1c(-c2cccnc2[C@H](C)OC)c2c3cc(ccc31)-c1csc(n1)C[C@H](NC(=O)[C@H](C(C)C)N(C)C(=O)N1C[C@@H]3OCCN(C)[C@H]3C1)C(=O)N1CCC[C@H](N1)C(=O)OCC(C)(C)C2
EXPERIMENTAL VALUE: 0.01 to 0.1 µM
--
SMILES ENTRY: CCn1c(-c2cccnc2[C@H](C)OC)c2c3cc(ccc31)-c1csc(n1)C[C@H](NC(=O)[C@H](C(C)C)N(C)C(=O)N1CC([C@H](C)COC)C1)C(=O)N1CCC[C@H](N1)C(=O)OCC(C)(C)C2
EXPERIMENTAL VALUE: 0.01 to 0.1 µM
--
SMILES ENTRY: CCn1c(-c2cccnc2[C@H](C)OC)c2c3cc(ccc31)-c1csc(n1)C[C@H](NC(=O)[C@H](C(C)C)N(C)C(=O)N1C[C@H](N)[C@@H](O)C1)C(=O)N1CCC[C@H](N1)C(=O)OCC(C)(C)C2
EXPERIMENTAL VALUE: 0.1 to 1 µM
--
SMILES ENTRY: CCn1c(-c2cccnc2[C@H](C)OC)c2c3cc(ccc31)-c1csc(n1)C[C@H](NC(=O)[C@H](C(C)C)N(C)C(=O)N1CCCC13CN(C)C3)C(=O)N1CCC[C@H](N1)C(=O)OCC(C)(C)C2
EXPERIMENTAL VALUE: 0.1 to 1 µM
--
SMILES ENTRY: CCn1c(-c2cccnc2[C@H](C)OC)c2c3cc(ccc31)-c1csc(n1)C[C@H](NC(=O)[C@H](C(C)C)N(C)C(=O)N1CCS(=O)(=O)CC1)C(=O)N1CCC[C@H](N1)C(=O)OCC(C)(C)C2
EXPERIMENTAL VALUE: 0.01 to 0.1 µM
--
SMILES ENTRY: CO[C@@H](C)c1ncccc1-c1c2c3cc(ccc3n1C)-c1cc(O)cc(c1)C[C@H](NC(=O)[C@H](C(C)C)N(C)C(C)=O)C(=O)N1CCC[C@H](N1)C(=O)OCC(C)(C)C2
EXPERIMENTAL VALUE: 1 to 10 µM
--
SMILES ENTRY: CCn1c(-c2cccnc2[C@H](C)OC)c2c3cc(ccc31)-c1csc(n1)C[C@H](NC(=O)[C@H](C(C)C)N(C)C(=O)N1CC([C@@H](C)N(C)C)C1)C(=O)N1CCC[C@H](N1)C(=O)OCC(C)(C)C2
EXPERIMENTAL VALUE: 0.01 to 0.1 µM
--
SMILES ENTRY: CCn1c(-c2cccnc2[C@H](C)OC)c2c3cc(ccc31)-c1csc(n1)C[C@H](NC(=O)[C@H](C(C)C)N(C)C(=O)N1CCCCC1)C(=O)N1CCC[C@H](N1)C(=O)OCC(C)(C)C2
EXPERIMENTAL VALUE: 0.01 to 0.1 µM
--
SMILES ENTRY: CCn1c(-c2cccnc2[C@H](C)OC)c2c3cc(ccc31)-c1csc(n1)C[C@H](NC(=O)[C@H](C(C)C)N(C)S(=O)(=O)N1CC(OC)C1)C(=O)N1CCC[C@H](N1)C(=O)OCC(C)(C)C2
EXPERIMENTAL VALUE: 0.1 to 1 µM
--
SMILES ENTRY: CCn1c(-c2cccnc2[C@H](C)OC)c2c3cc(ccc31)-c1cc(O)cc(c1)C[C@H](NC(=O)[C@H](C(C)C)N(C)C(=O)C13CCC(CC1)O3)C(=O)N1CCC[C@H](N1)C(=O)OCC(C)(C)C2
EXPERIMENTAL VALUE: 0.1 to 1 µM
--
SMILES ENTRY: CCn1c(-c2cccnc2[C@H](C)OC)c2c3cc(ccc31)-c1csc(n1)C[C@H](NC(=O)[C@H](C(C)C)N(C)C(=O)[C@@H]1OCC[C@@H]1c1ccccc1)C(=O)N1CCC[C@H](N1)C(=O)OCC(C)(C)C2
EXPERIMENTAL VALUE: 0.01 to 0.1 µM
--
SMILES ENTRY: CCn1c(-c2cnccc2COC)c2c3cc(ccc31)-c1cc(O)cc(c1)C[C@H](NC(=O)[C@H](C(C)C)N1CCCC1=O)C(=O)N1CCC[C@H](N1)C(=O)OCC(C)(C)C2
EXPERIMENTAL VALUE: 1 to 10 µM
--
SMILES ENTRY: CCn1c(-c2cccnc2[C@H](C)OC)c2c3cc(ccc31)-c1cc(O)cc(c1)C[C@H](NC(=O)[C@H](C(C)C)N(C)C(=O)[C@H]1C[C@@H]1C)C(=O)N1CCC[C@H](N1)C(=O)OCC(C)(C)C2
EXPERIMENTAL VALUE: 0.1 to 1 µM
--
SMILES ENTRY: CCn1c(-c2cccnc2[C@H](C)OC)c2c3cc(ccc31)-c1cc(O)cc(c1)C[C@H](NC(=O)[C@H](C(C)C)N(C)C(=O)[C@H]1C[C@H]1O)C(=O)N1CCC[C@H](N1)C(=O)OCC(C)(C)C2
EXPERIMENTAL VALUE: 0.1 to 1 µM

----------
Molecular target: KRAS G13D binding to BRAF RBD (Homo sapiens (Human), UniProt P01116+P62937, G13D)
Sequence (P01116 other isoform, or with tags, fused parts or gaps G13D): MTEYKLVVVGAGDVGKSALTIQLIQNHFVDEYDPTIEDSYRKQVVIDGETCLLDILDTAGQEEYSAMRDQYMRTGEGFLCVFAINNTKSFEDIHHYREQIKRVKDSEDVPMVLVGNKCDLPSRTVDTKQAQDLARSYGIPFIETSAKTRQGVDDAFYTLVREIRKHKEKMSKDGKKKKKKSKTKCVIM
Sequence (P62937 whole entry): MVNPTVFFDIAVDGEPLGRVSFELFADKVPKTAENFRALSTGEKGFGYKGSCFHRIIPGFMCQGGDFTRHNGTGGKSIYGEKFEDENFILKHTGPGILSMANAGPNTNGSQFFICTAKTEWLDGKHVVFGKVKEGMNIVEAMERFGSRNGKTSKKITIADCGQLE
Experiment: Ras-Raf disruption/FRET/MOA assay, KRAS G13D
pIC50: −log10 of the molar value.

COMPOUND: C=CC(=O)N1CC[C@H](C(=O)N(C)[C@H](C(=O)N[C@H]2Cc3cccc(c3)-c3ccc4c(c3)c(c(-c3cccnc3[C@H](C)OC)n4CC)CC(C)(C)COC(=O)[C@@H]3CCCN(N3)C2=O)[C@H](C)C(F)(F)F)C1 (atropisomer, axis not shown) [Compound A641]
pIC50: 5.00 to 6.00
//
COMPOUND: C/C=C/S(=O)(=O)N1CC[C@H](C(=O)N(C)[C@H](C(=O)N[C@H]2Cc3cc(O)cc(c3)-c3ccc4c(c3)c(c(-c3ccncc3[C@H](C)OC)n4CC)CC(C)(C)COC(=O)[C@@H]3CCCN(N3)C2=O)C(C)C)C1 [Compound A280]
pIC50: 6.00 to 7.00

----------
Form field: IC50 (one value per entry).
Target: NRAS G12C binding to BRAF RBD (Homo sapiens (Human), UniProt P01111+P62937, G12C)
Sequence (P01111 whole entry G12C): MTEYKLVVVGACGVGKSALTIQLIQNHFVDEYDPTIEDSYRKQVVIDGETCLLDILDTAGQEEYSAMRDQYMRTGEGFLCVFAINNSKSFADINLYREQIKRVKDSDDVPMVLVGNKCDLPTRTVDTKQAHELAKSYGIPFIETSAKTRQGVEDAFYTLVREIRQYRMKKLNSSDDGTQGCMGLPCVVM
Sequence (P62937 whole entry): as the sequence (P62937 whole entry) above
Assay: Ras-Raf disruption/FRET/MOA assay, NRAS G12C

MOLECULE: CC#CC(=O)N1CC[C@]2(CCN([C@H](C(=O)N[C@H]3Cc4cccc(c4)-c4ccc5c(c4)c(c(-c4cccnc4[C@H](C)OC)n5CC)CC(C)(C)COC(=O)[C@@H]4CCCN(N4)C3=O)C(C)C)C2=O)C1 (single isomer, unassigned) [Compound A426]
TESTED ON: NRAS G12C binding to BRAF RBD (Homo sapiens (Human), UniProt P01111+P62937, G12C)
IC50: 1000 to 10000 nM
--
MOLECULE: C=CC(=O)N1CC[C@]2(C1)OCN([C@H](C(=O)N[C@H]1Cc3cc(cc(C(F)(F)F)c3)-c3ccc4c(c3)c(c(-c3cccnc3[C@H](C)OC)n4CC)CC(C)(C)COC(=O)[C@@H]3CCCN(N3)C1=O)C(C)C)C2=O [Compound A557]
TESTED ON: NRAS G12C binding to BRAF RBD (Homo sapiens (Human), UniProt P01111+P62937, G12C)
IC50: 100 to 1000 nM
--
MOLECULE: CCn1c(-c2cccnc2[C@H](C)OC)c2c3cc(ccc31)N1CCO[C@@H](C[C@H](NC(=O)[C@H](C(C)C)N(C)C(=O)[C@@]3(F)CCN(C(=O)C#CC(C)(C)N4CCC4)C3)C(=O)N3CCC[C@H](N3)C(=O)OCC(C)(C)C2)C1 [Compound A726]
TESTED ON: NRAS G12C binding to BRAF RBD (Homo sapiens (Human), UniProt P01111+P62937, G12C)
IC50: 10 to 100 nM
--
MOLECULE: CCn1c(-c2cncnc2)c2c3cc(ccc31)-c1csc(n1)C[C@H](NC(=O)[C@H](C(C)C)N(C)C(=O)[C@H]1CCN(S(=O)(=O)CC)C1)C(=O)N1CCC[C@H](N1)C(=O)OCC(C)(C)C2 [Compound A170]
TESTED ON: NRAS G12C binding to BRAF RBD (Homo sapiens (Human), UniProt P01111+P62937, G12C)
IC50: 1000 to 10000 nM
